System: AGS
Test: Anti-proliferative 2D CTG assay, AGS
Type: cell-based
Settings: Homo sapiens, AGS, 96 h, AGS cells, 4 days incubation, read-out: AGS cell IC50
experimentalReadout: pIC50
Numbers only, as −log10 of the molar value.

Please report pIC50 for every entry that follows.
1. [2H]C([2H])([2H])Oc1nc(-c2cc(O)cc3ccc(F)c(C#C)c23)c(F)c2nc(OC[C@@]34CCCN3C/C(=C\F)C4)nc(N3CC4CCC(CC)(C3)N4)c12 (stereo partly drawn) [Example 204]
2. C#Cc1c(F)ccc2cc(O)cc(-c3ncc4c(N5C[C@@H]6CC[C@](COC)(C5)N6)nc(OC[C@@]56CCCN5CC(=C)C6)nc4c3F)c12 [Example 22]
3. [2H]C([2H])([2H])OC[C@@]12CC[C@@H](CN(c3nc(OC[C@@]45CCCN4C/C(=C/F)C5)nc4c(F)c(-c5cc(O)cc6ccc(F)c(C#C)c56)ncc34)C1)N2 [Example 84]

Reply:
[8.29, 7.66, 7.94]
